test.summary: MTT cytotoxicity assay, normal hepatic cell line HL-7702
Assay type: cell-based
assay.setup: HL-7702 normal hepatic cells, human normal hepatic immortal cell line, drug exposure 48 h, mean ± SD (n = 3), read-out: Cytotoxic activity (IC50) HL-7702
Parameter: IC50 at 48 h. Scope: all listed entries.
property.measured: IC50 at 48 h (µM)

[
  {
    "compound": "COc1cc([C@@H]2c3cc4c(cc3[C@@H](Nc3cccc(F)c3)[C@H]3COC(=O)[C@H]23)OCO4)cc(OC)c1OC",
    "property.measured": "IC50 at 48 h",
    "quantitative.readout": 29.9
  },
  {
    "compound": "COc1cc([C@@H]2c3cc4c(cc3[C@@H](Nc3ccc(Br)cc3)[C@H]3COC(=O)[C@H]23)OCO4)cc(OC)c1O",
    "property.measured": "IC50 at 48 h",
    "quantitative.readout": 32.1
  },
  {
    "compound": "COc1cc([C@@H]2c3cc4c(cc3[C@@H](Nc3ccccc3Cl)[C@H]3COC(=O)[C@H]23)OCO4)cc(OC)c1O",
    "property.measured": "IC50 at 48 h",
    "quantitative.readout": 2.42
  },
  {
    "compound": "COc1ccc(N[C@@H]2c3cc4c(cc3[C@@H](c3cc(OC)c(O)c(OC)c3)[C@H]3C(=O)OC[C@@H]32)OCO4)cc1Br",
    "property.measured": "IC50 at 48 h",
    "quantitative.readout": 91.8
  },
  {
    "compound": "COc1cc([C@@H]2c3cc4c(cc3[C@@H](Nc3ccc(F)cc3)[C@H]3COC(=O)[C@H]23)OCO4)cc(OC)c1O",
    "property.measured": "IC50 at 48 h",
    "quantitative.readout": 29.6
  },
  {
    "compound": "COc1cc([C@@H]2c3cc4c(cc3[C@@H](Nc3ccc(Cl)cc3)[C@H]3COC(=O)[C@H]23)OCO4)cc(OC)c1OC",
    "property.measured": "IC50 at 48 h",
    "quantitative.readout": 41.6
  },
  {
    "compound": "COc1ccc(N[C@@H]2c3cc4c(cc3[C@@H](c3cc(OC)c(O)c(OC)c3)[C@H]3C(=O)OC[C@@H]32)OCO4)cc1F",
    "property.measured": "IC50 at 48 h",
    "quantitative.readout": 188
  },
  {
    "compound": "COc1ccccc1N[C@@H]1c2cc3c(cc2[C@@H](c2cc(OC)c(OC)c(OC)c2)[C@H]2C(=O)OC[C@@H]21)OCO3",
    "property.measured": "IC50 at 48 h",
    "quantitative.readout": 37.5
  },
  {
    "compound": "COc1ccc(Cl)cc1N[C@@H]1c2cc3c(cc2[C@@H](c2cc(OC)c(O)c(OC)c2)[C@H]2C(=O)OC[C@@H]21)OCO3",
    "property.measured": "IC50 at 48 h",
    "quantitative.readout": 67.6
  },
  {
    "compound": "COc1cc([C@@H]2c3cc4c(cc3[C@@H](Nc3ccccc3Br)[C@H]3COC(=O)[C@H]23)OCO4)cc(OC)c1OC",
    "property.measured": "IC50 at 48 h",
    "quantitative.readout": 65.9
  },
  {
    "compound": "COc1cc([C@@H]2c3cc4c(cc3[C@@H](O[C@@H]3O[C@@H]5CO[C@@H](C)O[C@H]5[C@H](O)[C@H]3O)[C@H]3COC(=O)[C@H]23)OCO4)cc(OC)c1O [Etoposide, reference compound]",
    "property.measured": "IC50 at 48 h",
    "quantitative.readout": 24.6
  },
  {
    "compound": "COc1ccc(F)cc1N[C@@H]1c2cc3c(cc2[C@@H](c2cc(OC)c(OC)c(OC)c2)[C@H]2C(=O)OC[C@@H]21)OCO3",
    "property.measured": "IC50 at 48 h",
    "quantitative.readout": 27.7
  },
  {
    "compound": "COc1ccccc1N[C@@H]1c2cc3c(cc2[C@@H](c2cc(OC)c(O)c(OC)c2)[C@H]2C(=O)OC[C@@H]21)OCO3",
    "property.measured": "IC50 at 48 h",
    "quantitative.readout": 63.6
  }
]

Data credit: paper PMC4660440
